# Assayed target: Prostaglandin G/H synthase 1 (Rattus norvegicus); also: assay procedure not described here
# Sequence (Q63921 whole entry): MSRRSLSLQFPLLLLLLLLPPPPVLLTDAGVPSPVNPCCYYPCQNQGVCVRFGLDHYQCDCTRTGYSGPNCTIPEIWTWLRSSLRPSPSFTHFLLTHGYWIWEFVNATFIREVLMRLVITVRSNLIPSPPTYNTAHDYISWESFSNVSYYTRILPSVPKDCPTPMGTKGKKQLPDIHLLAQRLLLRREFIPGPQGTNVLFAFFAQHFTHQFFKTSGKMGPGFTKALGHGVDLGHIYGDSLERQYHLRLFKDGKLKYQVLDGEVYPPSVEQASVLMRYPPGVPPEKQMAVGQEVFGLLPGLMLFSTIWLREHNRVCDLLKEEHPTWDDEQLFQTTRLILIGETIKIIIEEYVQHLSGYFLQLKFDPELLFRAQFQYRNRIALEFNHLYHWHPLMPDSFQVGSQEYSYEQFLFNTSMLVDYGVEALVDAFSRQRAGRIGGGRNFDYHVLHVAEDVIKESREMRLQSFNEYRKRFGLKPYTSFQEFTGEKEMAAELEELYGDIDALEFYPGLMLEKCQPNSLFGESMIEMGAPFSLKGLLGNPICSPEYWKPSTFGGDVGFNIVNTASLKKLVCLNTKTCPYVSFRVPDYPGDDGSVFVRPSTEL
# Assay type: functional
Reported endpoint: AC50

// query Query AC50 on Prostaglandin G/H synthase 1 (Rattus norvegicus) for `NCCCCCC(=O)O`
// result > 10 µM

// query Query AC50 on Prostaglandin G/H synthase 1 (Rattus norvegicus) for `CN(C)CCC=C1c2ccccc2CCc2ccccc21`
// result > 30 µM

// query Query AC50 on Prostaglandin G/H synthase 1 (Rattus norvegicus) for `CO/N=C(\C(=O)N[C@@H]1C(=O)N2C(C(=O)[O-])=C(C[n+]3ccc(N)n3CCO)CS[C@H]12)c1csc(N)n1`
// result > 30 µM

// query Query AC50 on Prostaglandin G/H synthase 1 (Rattus norvegicus) for `CC(=O)[C@@]1(O)CC[C@H]2[C@@H]3C[C@H](C)C4=CC(=O)C=C[C@]4(C)[C@@]3(F)[C@@H](O)C[C@@]21C`
// result > 10 µM

// query Query AC50 on Prostaglandin G/H synthase 1 (Rattus norvegicus) for `CO[C@@H]1[C@@H](OC(N)=O)[C@@H](O)[C@H](Oc2ccc3c(O)c(NC(=O)c4ccc(O)c(CC=C(C)C)c4)c(=O)oc3c2C)OC1(C)C`
// result > 30 µM

// query Query AC50 on Prostaglandin G/H synthase 1 (Rattus norvegicus) for `CCCCCCCC(=O)CC[C@@H]1[C@@H](C/C=C\CCCC(=O)O)[C@@H](O)C[C@H]1O`
// result > 30 µM

// query Query AC50 on Prostaglandin G/H synthase 1 (Rattus norvegicus) for `OCCN(CCO)c1nc(N2CCCCC2)c2nc(N(CCO)CCO)nc(N3CCCCC3)c2n1`
// result > 30 µM

// query Query AC50 on Prostaglandin G/H synthase 1 (Rattus norvegicus) for `CN1C(=O)CN=C(c2ccccc2F)c2cc([N+](=O)[O-])ccc21`
// result > 30 µM

// query Query AC50 on Prostaglandin G/H synthase 1 (Rattus norvegicus) for COc1ccc2c3c1O[C@H]1C(=O)CC[C@H]4[C@@H](C2)N(C)CC[C@]314 [HYDROCODONE]
// result > 30 µM

// query Query AC50 on Prostaglandin G/H synthase 1 (Rattus norvegicus) for COC(=O)CCc1ccc(OCC(O)CNC(C)C)cc1 (stereo unspecified)
// result > 30 µM

// query Query AC50 on Prostaglandin G/H synthase 1 (Rattus norvegicus) for `Nc1ccc(S(=O)(=O)Nc2ncccn2)cc1`
// result > 10 µM

// query Query AC50 on Prostaglandin G/H synthase 1 (Rattus norvegicus) for `Cc1cn(-c2cc(NC(=O)c3ccc(C)c(Nc4nccc(-c5cnccn5)n4)c3)cc(C(F)(F)F)c2)cn1`
// result > 30 µM

// query Query AC50 on Prostaglandin G/H synthase 1 (Rattus norvegicus) for `CCn1c(=O)c2c(nc(/C=C/c3ccc(OC)c(OC)c3)n2C)n(CC)c1=O`
// result > 30 µM

// query Query AC50 on Prostaglandin G/H synthase 1 (Rattus norvegicus) for `O=C(O)CCCC[C@@H]1SC[C@@H]2NC(=O)N[C@@H]21`
// result > 10 µM

// query Query AC50 on Prostaglandin G/H synthase 1 (Rattus norvegicus) for CCC(=O)c1ccc2c(c1)N(CC(C)N(C)C)c1ccccc1S2 (stereo unspecified)
// result > 10 µM

// query Query AC50 on Prostaglandin G/H synthase 1 (Rattus norvegicus) for `C[C@]12CCC(=O)C=C1C=C[C@@H]1[C@@H]2CC[C@@]2(C)[C@H]1CC[C@@]21CCC(=O)O1`
// result > 30 µM

// query Query AC50 on Prostaglandin G/H synthase 1 (Rattus norvegicus) for Nc1c2c(nc3ccccc13)CCCC2O (stereo unspecified)
// result > 30 µM

// query Query AC50 on Prostaglandin G/H synthase 1 (Rattus norvegicus) for `CN1CCCN=C1/C=C/c1cccc(O)c1`
// result > 30 µM

// query Query AC50 on Prostaglandin G/H synthase 1 (Rattus norvegicus) for CCOC(=O)O[C@]1(C(=O)COC(=O)CC)CC[C@H]2[C@@H]3CCC4=CC(=O)C=C[C@]4(C)[C@H]3[C@@H](O)C[C@@]21C [PREDNICARBATE]
// result > 10 µM

// query Query AC50 on Prostaglandin G/H synthase 1 (Rattus norvegicus) for `Oc1cc(Cl)ccc1Oc1ccc(Cl)cc1Cl`
// result > 30 µM

// query Query AC50 on Prostaglandin G/H synthase 1 (Rattus norvegicus) for `C=C(c1ccccc1OCc1cccc(Cl)c1)n1ccnc1`
// result 21.1 µM

// query Query AC50 on Prostaglandin G/H synthase 1 (Rattus norvegicus) for CS(=O)(=O)Nc1ccc([N+](=O)[O-])cc1Oc1ccccc1 [NIMESULIDE]
// result > 30 µM

// query Query AC50 on Prostaglandin G/H synthase 1 (Rattus norvegicus) for `CN(C)CCc1c[nH]c2ccc(CS(=O)(=O)N3CCCC3)cc12`
// result > 30 µM

// query Query AC50 on Prostaglandin G/H synthase 1 (Rattus norvegicus) for `CC(C)CN(C[C@@H](O)[C@H](Cc1ccccc1)NC(=O)O[C@H]1CCOC1)S(=O)(=O)c1ccc(N)cc1`
// result > 10 µM

// query Query AC50 on Prostaglandin G/H synthase 1 (Rattus norvegicus) for CCN1C(=O)NC(c2ccccc2)C1=O (stereo unspecified)
// result 22 µM

// query Query AC50 on Prostaglandin G/H synthase 1 (Rattus norvegicus) for CC1Cc2ccccc2N1NC(=O)c1ccc(Cl)c(S(N)(=O)=O)c1 (stereo unspecified) [INDAPAMIDE]
// result > 30 µM

// query Query AC50 on Prostaglandin G/H synthase 1 (Rattus norvegicus) for CNC1(C)C2CCC(C2)C1(C)C (stereo unspecified)
// result > 10 µM

// query Query AC50 on Prostaglandin G/H synthase 1 (Rattus norvegicus) for `CCOc1cc2ncc(C#N)c(Nc3ccc(OCc4ccccn4)c(Cl)c3)c2cc1NC(=O)/C=C/CN(C)C`
// result > 30 µM

// query Query AC50 on Prostaglandin G/H synthase 1 (Rattus norvegicus) for CC1NCCOC1c1ccccc1 (stereo unspecified)
// result > 30 µM

// query Query AC50 on Prostaglandin G/H synthase 1 (Rattus norvegicus) for C[C@@H](O)[C@H]1C(=O)N2C(C(=O)O)=C(SCCN=CN)C[C@H]12 [IMIPENEM ANHYDROUS]
// result > 300 µM

// query Query AC50 on Prostaglandin G/H synthase 1 (Rattus norvegicus) for CCN(CC)C(C)C(=O)c1ccccc1 (stereo unspecified)
// result > 30 µM
